TARGET_ENTITY: T1, cynomolgus TGF-β RII/Fc (cynomolgus)
T1 construct: extracellular domain; also called Cyno TGFBRII; Cyno TGFbRII
ASSAY_DETAILS: SPR Biacore T200, receptor-Fc captured by anti-human IgG, dAb as analyte, 1:1 model
Description: Anti-human IgG was immobilised on a Biacore CM4 chip by primary amine coupling according to the manufacturer's instructions. Human TGF-β RII/Fc, cynomolgus TGF-β RII/Fc or human Fc fragment were captured on this surface. Domain antibodies were passed over the two captured receptors at 3 concentrations of 100, 10 and 1 nM (DOM23h-439 dAbs) or 100, 25 and 6.25 nM (DOM23h-271 dAbs). […]
METRIC: kon (M⁻¹ s⁻¹)
A number alone suffices; assume M⁻¹ s⁻¹.

stdin: What value of kon has been recorded for this entry: DOM23h-439-42 (DOM23h-439-25 + C-terminal Alanine + 61N) (VHH, human VH dAb) VHH: EVQLLESGGGLVQPGGSLRLSCAASGFTFGTEQMWWVRQAPGKGLEFVSRIDSPGGRTYYANSVKGRFTISRDNSKNTLYLQMNSLRAEDTAVYYCAKRRPTGVSGTFYDYWGQGTLVTVSS
stdout: 3.72e+07

stdin: What value of kon has been recorded for this entry: DOM23h-271-129 (VHH, expressed from pC10) VHH: EVQLLESGGGLVQPGGSLRLSCAASGSTFTEYRMWWVRQAPGKGLEWVSAIEPIGHRTYYADSVKGRFTISRDNSKNTLYLQMNSLRAEDTAVYYCAKQAPNQRYVARGRLDYWGQGTLVTVSS
stdout: 6e+06

stdin: What value of kon has been recorded for this entry: DOM23h-271-130 (DOM23h-271-123 + C-terminal Alanine) (VHH, human VH dAb) VHH: EVQLLESGGGLVQPGGSLRLSCAASGSTFTEYRMWWVRQAPGKGLEWVSAIEPIGHRTYYADSVKGRFTISRDNSKNTLYLQMNSLRAEDTAVYYCAKQAPGEKWARRWDLDYWGQGTLVTVSS
stdout: 2.61e+06

stdin: What value of kon has been recorded for this entry: DOM23h-439-25 (VHH, expressed from pC10) VHH: EVQLLESGGGLVQPGGSLRLSCAASGFTFGTEQMWWVRQAPGKGLEFVSRIDSPGGRTYYADSVKGRFTISRDNSKNTLYLQMNSLRAEDTAVYYCAKRRPTGVSGTFYDYWGQGTLVTVSS
stdout: 8.99e+06

stdin: What value of kon has been recorded for this entry: DOM23h-439-35 (VHH, expressed from pC10) VHH: EVQLLESGGGLVQPGGSLRLSCAASGFTFGTDQMWWVRQAPGKGLEFVSRIDSPGGRTYYANSVKGRFTISRDNSKNTLYLQMNSLRAEDTAVYYCAKRQPAGVSGKYVDYWGQGTLVTVSS
stdout: 2.32e+07
